// reported recombinant barcode read abundance (log10) for each item listed
Experiment: recombinant barcode read abundance after kanamycin selection (control-corrected) (log10(CPM+1)); higher = more efficient recombination; sequences stand for … in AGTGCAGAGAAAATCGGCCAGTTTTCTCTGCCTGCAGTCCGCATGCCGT…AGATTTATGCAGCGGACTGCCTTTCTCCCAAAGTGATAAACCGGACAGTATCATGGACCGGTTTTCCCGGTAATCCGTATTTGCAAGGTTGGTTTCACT; site = the 11-nt target;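 note: IS621 recombinase and bridge RNA in Escherichia coli cells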

{"columns": ["chain", "measurement"],
 "data": [
  ["TCTAACACTTGGGTTCTAACCTGTTGCCT (site ACTAACACTAG)", 0.0882],
  ["AGACTAACTTGGGTTCTAACCTGTTGCTT (site AGACTAACTAA)", 0.715],
  ["TAGCATGCTTGGGTTCTAACCTGTTGCAG (site TAGCATGCTTT)", 0.017],
  ["AACATACCTTGGGTTCTAACCTGTTGCCT (site AACATACCTAG)", 0.737],
  ["CTCGTTGCTTGGGTTCTAACCTGTTGCCT (site TTCGTTGCTAG)", 0.0838],
  ["GACATCGCTTGGGTTCTAACCTGTTGCCT (site GACATCTCTAG)", 0.641],
  ["GTCAATCCTTGGGTTCTAACCTGTTGCTG (site GTCAAACCTCA)", 0.00666],
  ["AATGCTCCTTGGGTTCTAACCTGTTGCAT (site AATGCTCCTAA)", 0.0259]
]}

Q: Sample CTACTAACTTGGGTTCTAACCTGTTGCGT (site CTACTAACTAC) — what was its recombinant barcode read abundance (log10)?
A: 1.07

Q: Sample CTTACTGCTTGGGTTCTAACCTGTTGCCT (site CTTACTGCTAG) — what was its recombinant barcode read abundance (log10)?
A: 0.183

Q: Sample CGCGCCTCTTGGGTTCTAACCTGTTGCCG (site GGCCCCTCTCG) — what was its recombinant barcode read abundance (log10)?
A: 0.362

Q: Sample AATTGGCCTTGGGTTCTAACCTGTTGCGT (site AATTGGCCTAC) — what was its recombinant barcode read abundance (log10)?
A: 0.673

Q: Sample CTAAGAGCTTGGGTTCTAACCTGTTGCCA (site CTAAGAGCTTG) — what was its recombinant barcode read abundance (log10)?
A: 0.483

Q: Sample GACCAGCCTTGGGTTCTAACCTGTTGCGT (site GACCAGCCTAT) — what was its recombinant barcode read abundance (log10)?
A: 1.32

Q: Sample ATACTAACTTGGGTTCTAACCTGTTGCCT (site AGACTAACTAG) — what was its recombinant barcode read abundance (log10)?
A: 0.0472

Q: Sample GTTTGGACTTGGGTTCTAACCTGTTGCTG (site GTTTGGACTCA) — what was its recombinant barcode read abundance (log10)?
A: 1.06

Q: Sample CAGGGTTCTTGGGTTCTAACCTGTTGCCT (site CTGGGTTCTAG) — what was its recombinant barcode read abundance (log10)?
A: 0.21

Q: Sample TAGCCTACTTGGGTTCTAACCTGTTGCGG (site TAGCCTACTAC) — what was its recombinant barcode read abundance (log10)?
A: 0.0228

Q: Sample AGCCACACTTGGGTTCTAACCTGTTGCGT (site AGCCACACTAC) — what was its recombinant barcode read abundance (log10)?
A: 0.948

Q: Sample TAGGTTCCTTGGGTTCTAACCTGTTGCAT (site TAGGTTCCTAT) — what was its recombinant barcode read abundance (log10)?
A: 1.04

Q: Sample GAACCTACTTGGGTTCTAACCTGTTGCGA (site GAACCTACTCC) — what was its recombinant barcode read abundance (log10)?
A: 0.0825

Q: Sample CATTTCTCTTGGGTTCTAACCTGTTGCCT (site TATTTCTCTAG) — what was its recombinant barcode read abundance (log10)?
A: 0.00749

Q: Sample TAGCGTACTTGGGTTCTAACCTGTTGCGT (site TAGCGTACTCC) — what was its recombinant barcode read abundance (log10)?
A: 0.0572
